# ASSAY OVERVIEW: Pharmacokinetics assay in mice
# Format: in vivo
# SETUP CONDITIONS: female, mouse, in vivo, po; C57 mice, intragastric, 2 mg/kg; read-out: Residence time MRT
RECORDED METRIC: MRT

According to the records, this compound [2H]C([2H])([2H])C([2H])([2H])S(=O)(=O)c1ccc([C@H](CO)NC(=O)c2ccc3c(c2)cc(Cc2ccc(Cl)cc2C(F)(F)F)n3CCF)cc1 (single isomer, unassigned) displays MRT of 9.13 h

====

# ASSAY OVERVIEW: Pharmacokinetics assay in mice
# Type: in vivo
# SETUP CONDITIONS: female, mouse, plasma, po; C57 mice, intragastric, 2 mg/kg; read-out: Half-life T½ (converted)
RECORDED METRIC: half-life (h)
The reply should be a number in h, with the unit left off.

According to the records, this compound [2H]C([2H])(F)Cn1c(Cc2ccc(Cl)cc2C(F)(F)F)cc2cc(C(=O)N[C@@H](CO)c3ccc(S(=O)(=O)CC)cc3)ccc21 (single isomer, unassigned) [Example 1] displays half-life of 9.08

====

# ASSAY OVERVIEW: Pharmacokinetics assay in mice
# Assay type: in vivo
# SETUP CONDITIONS: female, mouse, plasma, po; C57 mice, intragastric, 2 mg/kg; read-out: Clearance CLz/F
RECORDED METRIC: CL/F (mL/min/kg)
The reply should be a number in mL/min/kg, with the unit left off.

According to the records, this compound [2H]C([2H])(F)Cn1c(Cc2ccc(Cl)cc2C(F)(F)F)cc2cc(C(=O)N[C@@H](CO)c3ccc(S(=O)(=O)CC)cc3)ccc21 (single isomer, unassigned) displays CL/F of 0.82

====

# System: IL-17A
# ASSAY OVERVIEW: IL-17A enzyme-linked immune quantitative assay in cytostim-activated human PBMC
# Assay type: cell-based
# SETUP CONDITIONS: 72 h, 3 days
RECORDED METRIC: Emax

The examples below pair each entry with its known result.
• [2H]C([2H])(F)Cn1c(Cc2ccc(Cl)cc2C(F)(F)F)cc2cc(C(=O)N[C@@H](CO)c3ccc(S(=O)(=O)CC)cc3)ccc21 (single isomer, unassigned) = 88%
• [2H]C([2H])(NC(=O)c1ccc2c(c1)cc(Cc1ccccc1C(F)(F)F)n2C1CC1)c1ccc(S(=O)(=O)CC)cc1 = 79%

According to the records, this compound [2H]C([2H])(O)Cn1c(Cc2ccc(Cl)cc2C(F)(F)F)cc2cc(C(=O)N[C@@H](CO)c3ccc(S(=O)(=O)CC)cc3)ccc21 displays Emax of 82%

According to the records, this compound [2H]C([2H])(NC(=O)c1ccc2c(c1)cc(Cc1ccc(Cl)cc1C(F)(F)F)n2CCF)c1ccc(S(=O)(=O)CC)cc1 displays Emax of 102%

According to the records, this compound [2H]C([2H])([2H])C([2H])([2H])S(=O)(=O)c1ccc([C@H](CO)NC(=O)c2ccc3c(c2)cc(Cc2ccc(Cl)cc2C(F)(F)F)n3CCF)cc1 (single isomer, unassigned) displays Emax of 100%

According to the records, this compound [2H]C([2H])(F)Cn1c(Cc2ccc(Cl)cc2C(F)(F)F)cc2cc(C(=O)N[C@@H](CO)c3ccc(S(=O)(=O)CC)cn3)ccc21 displays Emax of 88%

Reference source for all entries: patent US20200277278A1
